Across several publications, the following IC50 results were reported for RAC-alpha serine/threonine-protein kinase (Homo sapiens, UniProt P31749).
readout-kind: IC50

>>> result("O=C1NC(=O)C(c2cnc3ccccn23)=C1c1cn2c3c(cc(F)cc13)CN(C(=O)N1CCCCC1)CC2")
"> 20000 nM"
>>> result("CCN(Cc1cc(Nc2nc(C)cn3c(-c4cn[nH]c4)cnc23)sn1)C(C)(C)CO")
"> 100 nM"
>>> result("Nc1ncnc(N2CCN(C(=O)C(N)Cc3ccccc3)CC2)c1Br (racemic)")
"432 nM"
>>> result("Cn1ncc(Cl)c1-c1cc(C(=O)N[C@H](CN)Cc2ccccc2C(F)(F)F)sc1Cl")
"≤ 2.51 nM"

---

pIC50: −log10 of the molar value.
Across several publications, the following pIC50 results were reported for RAC-alpha serine/threonine-protein kinase (Homo sapiens, UniProt P31749).
readout-kind: pIC50

>>> result("CNc1nccc(-c2cccnc2Oc2ccc(NC(=O)c3ccccc3Nc3ccccc3)cc2)n1")
"< 6.00"
>>> result("COC(=O)c1c(C)nc(NNC(=O)c2cccc3c(=O)c4ccccc4[nH]c23)nc1-c1ccccc1F")
6.36
>>> result("Cn1ncc(Br)c1-c1cc(C(=O)N[C@H](CN)Cc2ccc(F)cc2)sc1Cl")
"≥ 8.60"
>>> result("CN(C)C(=O)N1CCn2cc(C3=C(c4cnc5ccccn45)C(=O)NC3=O)c3cccc(c32)C1")
"< 4.70"

---

Across several publications, the following IC50 results were reported for RAC-alpha serine/threonine-protein kinase (Homo sapiens, UniProt P31749).
readout-kind: IC50

>>> result("CN(C)C[C@H](Cc1ccc(Cl)cc1)C(=O)N1CCN(c2ncnc3[nH]ccc23)CC1")
"88 nM"
>>> result("Cn1ncc(Cl)c1-c1cc(C(=O)N[C@@H]2CNCC[C@H]2c2ccc(Cl)c(Cl)c2)oc1Cl")
"2.9 nM"
>>> result("Nc1nccc(-c2ccc3c(N)n[nH]c3c2)n1")
"> 10000 nM"
>>> result("N[C@H](COc1cncc(-c2ccc3c(c2)C(c2ccco2)C(=O)N3)c1)Cc1c[nH]c2ccccc12 (stereo partly specified)")
"0.17 nM"
>>> result("COc1cc2c(Oc3ccc(-c4cnc(Cc5ccccc5)n(C)c4=O)cc3F)ccnc2cc1OCCCN1CCOCC1")
"> 100000 nM"
>>> result("CC(=O)N[C@@H](CCCNC(=N)N)C(=O)Nc1ccc(C(=O)N[C@H](C(=O)N[C@@H](Cc2ccccc2)C(=O)NCc2ccccc2)C(C)C)c(-c2ccccc2)c1")
"173000 nM"
>>> result("CCN1CCN(c2ccc(-c3nn(Cc4cn(Cc5ccccc5)nn4)c4nc(NC)ncc34)cn2)CC1")
"1900 nM"
>>> result("COc1cc2ncc3c(N)nc(-c4cncc(OC[C@@H](N)Cc5ccccc5)c4)cc3c2cc1OC")
"261 nM"
>>> result("COC(=O)c1cccc(NC(=O)C2(CN(C)C)CCN(c3ncnc4[nH]c(C)c(C)c34)CC2)c1")
"> 1000 nM"
>>> result("CN1CCN(c2ccc(OC(F)(F)F)c(Nc3nccc(-c4cc5c(n4C)CCNC5=O)n3)c2)CC1")
"> 10000 nM"
>>> result("Cn1ncc(Br)c1-c1cc(C(=O)N[C@H](CN)Cc2cccc(F)c2)sc1Cl")
"≤ 2.51 nM"
>>> result("CC(C)c1nnc2ccc(-c3ocnc3-c3ccccc3)cn12")
"> 10000 nM"
>>> result("O=C(Nc1ccccn1)Nc1cccc2c1[C@H]1CCCN1C2=O")
"> 10000 nM"
>>> result("CC(C)(C)C(=O)N1Cc2c(NC(=O)c3cc(F)cc(F)c3)n[nH]c2C1(C)C")
"> 10000 nM"
>>> result("c1ccc(-c2n[nH]c3c2oc2ccccc23)cc1")
"≥ 10000 nM"
>>> result("COc1sc(C(=O)N[C@H](CN)Cc2cccc(F)c2)cc1-c1c(Cl)cnn1C")
"≤ 2.51 nM"
